Some compounds, each annotated with its measured Ki.
# system_tested: Phenylethanolamine N-methyltransferase (Bos taurus)
# Sequence (P10938 whole entry): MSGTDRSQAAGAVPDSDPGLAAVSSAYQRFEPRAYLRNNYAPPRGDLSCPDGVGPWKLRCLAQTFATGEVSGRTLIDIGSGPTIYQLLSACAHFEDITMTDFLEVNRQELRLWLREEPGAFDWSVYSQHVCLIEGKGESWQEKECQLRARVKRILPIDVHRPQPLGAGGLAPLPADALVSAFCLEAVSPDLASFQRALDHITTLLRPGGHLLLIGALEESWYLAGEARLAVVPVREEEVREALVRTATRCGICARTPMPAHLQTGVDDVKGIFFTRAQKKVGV
recorded_endpoint: Ki (µM)

INSERT INTO assay_data (mol, result_number) VALUES
  ('N#Cc1ccc2c(c1)CN[C@@H](CF)C2', 0.97),
  ('FC[C@@H]1Cc2ccc(Br)cc2CN1', 0.47),
  ('ClC[C@@H]1Cc2ccccc2CN1', 12),
  ('OC[C@H]1Cc2ccc(Br)cc2CN1', 0.38),
  ('FC[C@H]1Cc2ccccc2CN1', 0.69),
  ('C[C@@H]1Cc2ccc([N+](=O)[O-])cc2CN1', 0.25),
  ('O=[N+]([O-])c1ccc2c(c1)CN[C@@H](CCl)C2', 0.47),
  ('ClC[C@H]1Cc2ccccc2CN1', 3.5),
  ('C[C@H]1Cc2ccccc2CN1', 38),
  ('O=S(=O)(Nc1ccc(Cl)cc1)c1ccc2c(c1)CN[C@@H](CF)C2', 0.28),
  ('C[C@H]1Cc2ccc([N+](=O)[O-])cc2CN1', 1.3),
  ('O=S(=O)(Nc1ccc(Cl)cc1)c1ccc2c(c1)CN[C@H](CF)C2', 1.9),
  ('N#Cc1ccc2c(c1)CN[C@H](CF)C2', 3.5);
